Origin of values: ChEMBL document CHEMBL3352013

Listing of recorded pEC50 by entry.
- Tested on: MRC5
- ASSAY_PROCEDURE: Cytotoxicity against human MRC5 cells assessed as growth inhibition after 72 hrs
- Type: cell-based
- ASSAY_CONTEXT: MRC5, 72 h
Hey, just a heads up that pEC50 is the negative log base 10 of the concentration in molar.

Past entries and their recorded results:
COc1cccc(OC)c1C(=O)Nc1c[nH]nc1C(=O)N[C@H]1CC[C@H](OC)CC1: 4.51
COc1cccc(OC)c1C(=O)Nc1c[nH]nc1C(=O)NCc1ccccc1: 4.30
CCc1ccccc1C(=O)Nc1c[nH]nc1C(=O)N[C@H]1CC[C@H](OC)CC1: 5.47

Enquiry: Which pEC50 value is on record for CO[C@H]1CC[C@H](NC(=O)c2n[nH]cc2NC(=O)c2ccc(N3CCN(C)CC3)cc2)CC1 ?
Return: 4.70

Enquiry: Form field: reported pEC50 of COc1ccccc1C(=O)Nc1c[nH]nc1C(=O)N[C@H]1CC[C@H](OC)CC1
Return: 5.82

Enquiry: Param item = CO[C@H]1CC[C@H](NC(=O)c2n[nH]cc2NC(=O)c2ccc(-c3ccccc3)o2)CC1 ; retrieve measured pEC50.
Return: 7.00

###

- ASSAY_PROCEDURE: Selectivity ratio, ratio of IC50 for human CDK2/cyclin A to IC50 for Trypanosoma brucei GSK3
// NB: equality with 6 counts as not fulfilled; only Ratio IC50 strictly below is fulfilled

CO[C@H]1CC[C@H](NC(=O)c2n[nH]cc2NC(=O)c2ccc(OC(F)F)cc2)CC1: not fulfilled

Enquiry: # TODO verify Ratio IC50 < 6 strictly for this molecule: COc1cccc(OC)c1C(=O)Nc1c[nH]nc1C(=O)NC1CCN(Cc2ccccc2)C1 (stereo not drawn)
Return: not fulfilled

Enquiry: Bench note: check whether CO[C@H]1CC[C@H](NC(=O)c2n[nH]cc2NC(=O)c2ncoc2-c2ccccc2)CC1 shows Ratio IC50 below 6
Return: not fulfilled

Enquiry: Determine if COc1cccc(OC)c1C(=O)Nc1c[nH]nc1C(=O)NCc1ccccn1 shows Ratio IC50 strictly lower than 6.
Return: not fulfilled

Enquiry: I'd appreciate it if you could check whether CO[C@H]1CC[C@H](NC(=O)c2n[nH]cc2NC(=O)c2cnc3ccccn23)CC1 has Ratio IC50 smaller than 6.
Return: fulfilled

Enquiry: A record lists CO[C@H]1CC[C@H](NC(=O)c2n[nH]cc2NC(=O)C2CCOCC2)CC1 . Is its Ratio IC50 below 6?
Return: fulfilled

Enquiry: Dear reviewer, please state whether CO[C@H]1CC[C@H](NC(=O)c2n[nH]cc2NC(=O)c2cc(F)cc(F)c2)CC1 has Ratio IC50 strictly beneath 6.
Return: fulfilled

Enquiry: API: query returns whether the molecule falls strictly under 6 in Ratio IC50. Query: CO[C@H]1CC[C@H](NC(=O)c2n[nH]cc2NC(=O)c2ccccc2C(F)(F)F)CC1
Return: fulfilled

###

- EXPERIMENTAL_SYSTEM: CDK2/Cyclin A2 (Homo sapiens, UniProt P24941)
- ASSAY_PROCEDURE: Inhibition of human CDK2/cyclin A using Biotin-C6-PKTPKKAKKL substrate
The reader will find reported IC50 values listed item by item below.

COc1cccc(OC)c1C(=O)Nc1c[nH]nc1C(=O)NCCCOC(C)C: > 10 µM
COCCNC(=O)c1n[nH]cc1NC(=O)c1c(OC)cccc1OC: > 10 µM

Enquiry: Which IC50 is listed for COc1cccc(OC)c1C(=O)Nc1c[nH]nc1C(=O)NCc1ncccc1C ?
Return: > 10 µM

###

- Tested on: MRC5
- ASSAY_PROCEDURE: Cytotoxicity against human MRC5 cells assessed as growth inhibition after 72 hrs
- Type: cell-based
- ASSAY_CONTEXT: MRC5, 72 h
Kindly apply the following: true (1) if EC50 is less than 10 µM, false (0) in every other case.

Example results:
COc1cc(OC)c(C(=O)Nc2c[nH]nc2C(=O)N[C@H]2CC[C@H](OC)CC2)c(OC)c1: false (0)
COc1cccc(OC)c1C(=O)Nc1c[nH]nc1C(=O)Nc1ccccn1: false (0)
COc1cccc(OC)c1C(=O)Nc1c[nH]nc1C(=O)O: false (0)
COc1cccc(OC)c1C(=O)Nc1c[nH]nc1C(=O)NC1CCN(C(=O)OC(C)(C)C)CC1: false (0)
COc1cccc(OC)c1C(=O)Nc1c[nH]nc1C(=O)NN1CCOCC1: false (0)

Enquiry: Determine if CO[C@H]1CC[C@H](NC(=O)c2n[nH]cc2NC(=O)c2ccccc2Nc2cccc(C)c2C)CC1 shows EC50 strictly lower than 10 µM.
Return: false (0)

Enquiry: Report whether reported EC50 is lower than 10 µM (strictly) for COc1cccc(OC)c1C(=O)Nc1c[nH]nc1C(=O)NC1CC2CCC1C2 (centres undefined)
Return: false (0)

Enquiry: Would you kindly verify if EC50 of CO[C@H]1CC[C@H](NC(=O)c2n[nH]cc2NC(=O)c2cc3ccccc3o2)CC1 is strictly less than 10 µM?
Return: true (1)

###

List of EC50 values.
- System: MRC5
- ASSAY_PROCEDURE: Cytotoxicity against human MRC5 cells assessed as growth inhibition after 72 hrs
- Assay type: cell-based
- ASSAY_CONTEXT: MRC5, 72 h
API: value field is a number in µM; no unit string.

// solved cases for EC50 follow
CO[C@H]1CC[C@H](NC(=O)c2n[nH]cc2NC(=O)c2c(C)nc3ccccn23)CC1: 34
CO[C@H]1CC[C@H](NC(=O)c2n[nH]cc2NC(=O)c2ccc(F)cc2F)CC1: 11
CO[C@H]1CC[C@H](NC(=O)c2n[nH]cc2NC(=O)c2cc(F)cc(F)c2)CC1: 0.6
COc1cccc(OC)c1C(=O)Nc1c[nH]nc1C(=O)N[C@H]1CC[C@H](O)CC1: 34
CO[C@H]1CC[C@H](NC(=O)c2n[nH]cc2NC(=O)c2ccc(OC(F)F)cc2)CC1: 2.5
CO[C@H]1CC[C@H](NC(=O)c2n[nH]cc2NC(=O)c2ccccc2C(F)(F)F)CC1: 3.3

Enquiry: Query (molecule): CO[C@H]1CC[C@H](NC(=O)c2n[nH]cc2NC(=O)c2ncoc2-c2ccccc2)CC1 ; field requested: EC50
Return: 28
